target.or.test.system: ER in T47D cells (Homo sapiens (Human))
Sequence (P03372 whole entry): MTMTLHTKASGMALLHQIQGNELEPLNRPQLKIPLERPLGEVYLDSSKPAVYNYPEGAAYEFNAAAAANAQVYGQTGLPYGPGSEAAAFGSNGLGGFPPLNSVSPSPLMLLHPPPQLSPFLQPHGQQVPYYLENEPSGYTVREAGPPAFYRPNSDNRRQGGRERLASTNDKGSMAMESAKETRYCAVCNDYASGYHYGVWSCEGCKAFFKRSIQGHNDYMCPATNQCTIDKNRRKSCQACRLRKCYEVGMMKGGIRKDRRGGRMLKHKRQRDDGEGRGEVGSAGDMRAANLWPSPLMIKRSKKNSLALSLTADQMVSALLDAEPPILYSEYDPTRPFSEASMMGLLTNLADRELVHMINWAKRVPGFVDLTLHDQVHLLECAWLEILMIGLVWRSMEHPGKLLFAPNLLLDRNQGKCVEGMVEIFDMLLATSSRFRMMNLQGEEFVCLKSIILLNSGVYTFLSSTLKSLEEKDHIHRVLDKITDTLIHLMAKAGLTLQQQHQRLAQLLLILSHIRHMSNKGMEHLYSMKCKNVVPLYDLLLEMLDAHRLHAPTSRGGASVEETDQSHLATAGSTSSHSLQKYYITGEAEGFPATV
assay.protocol: In-cell western (ICW) ER degradation assay in T47D cells (Compounds A1-A70)
Type: cell-based
measurement.conditions: T47D, maximal ER degradation, T47D cells, 16 hrs treatment; read-out: T47D ICW Dmax (%)
Counter-ions that a name gives are not always drawn.
quantity.kind: Dmax

C[C@H]1Cc2c([nH]c3ccccc23)[C@H](c2cnc(N3CCC4(CC3)C[C@H](CN3CCC(c5ccc(N[C@H]6CCC(=O)NC6=O)cc5)CC3)CO4)nc2)N1CC(F)F; 50 to 75%
C[C@@H]1Cc2c([nH]c3ccccc23)[C@@H](c2cnc(N3CCC4(CC3)CC(CN3CCC(c5ccc6c(c5)n(C)c(=O)n6C5CCC(=O)NC5=O)CC3)C4)nc2)N1CC(F)F (some centres unmarked); 50 to 75%
COc1cc(N2CCC(CN3CCN4c5cc(F)c(C(=O)N[C@H]6CCC(=O)NC6=O)cc5OC[C@@H]4C3)CC2)ccc1[C@@H]1c2[nH]c3ccccc3c2C[C@@H](C)N1CC(F)F; 50 to 75%

For every record below, what is its Dmax?
1. COc1cc(N2CCC(CN3CCC(c4ccc(N[C@H]5CCC(=O)NC5=O)cc4F)CC3)CC2)ccc1[C@@H]1c2[nH]c3ccccc3c2C[C@@H](C)N1CC(F)F
2. C[C@H]1Cc2c([nH]c3ccccc23)[C@H](c2cnc(N3CCC4(CC3)C[C@@H](CN3CCN5c6ccc7c(c6OC[C@@H]5C3)CN([C@@H]3CCC(=O)NC3=O)C7=O)CO4)nc2)N1CC(F)F [Compound A59, formate]

["25 to 50%", "50 to 75%"]

Every entry's value here was drawn from patent US20260007681A1.
